Tested on: SEM cells
Test: cell viability relative to DMSO control; higher = less cytotoxic
Conditions: RPMI 5 mM glucose + 10% dialyzed FBS; 48 h; 1.71 µM
Endpoint Name: cell viability

Completed entries (count: 2):
Compound	cell viability
OCCCNc1cc(-c2ccnc(Nc3cccc(Cl)c3)n2)ccn1	5.73%
C[C@@H]1CC[C@@]2(OC1)OC1CC3C4CC=C5CC(O)CCC5(C)C4CCC3(C)C1[C@@H]2C (some centres undefined)	84.1%

// query cell viability value for entry CC(C)c1ccccc1Cc1cc(C(=O)Nc2ccc([S+](=O)([O-])c3ccccc3C(C)(C)C)cc2)c(O)c(O)c1O
123%

// query cell viability value for entry CO[C@@H]1C(N(C)C(=O)c2ccccc2)C[C@H]2O[C@]1(C)n1c3ccccc3c3c4c(c5c6ccccc6n2c5c31)C(=O)NC4=O (some centres undefined)
74.4%

----------
cell viability by entry:
System: P12-Ichikawa
Assay: cell viability relative to DMSO control; higher = less cytotoxic
Conditions: HPLM + 10% dialyzed FBS; 48 h; 0.00234 µM
Quick note: give the figure in %, leave out the unit.

Compound	Unit Of Measure	Recorded Measurement
NC(=O)Nc1cc(-c2ccc(CN3CCOCC3)cc2)sc1C(N)=O	%	119

Alright, here's another compound for you.
// query cell viability value for entry CC(C)[C@H](CO)Nc1nc(Nc2cccc(Cl)c2)c2ncn(C(C)C)c2n1
112

----------
Test system: P12-Ichikawa
Assay: cell viability relative to DMSO control; higher = less cytotoxic
Conditions: HPLM + 10% dialyzed FBS; 48 h; 15.4 µM
Endpoint Name: cell viability (%)
Quick note: give the figure in %, leave out the unit.

Completed entries (count: 7):
Compound	Recorded Measurement
CC(C)(C)NC(=O)[C@H]1CC[C@H]2[C@@H]3CC[C@H]4NC(=O)\C=C/[C@]4(C)[C@H]3CC[C@]12C	27.7
OC1=CC=C(C=C1)\C2=C\C(=O)C3=C(O2)C=C(O)C=C3O	108
Cc1cc(Cl)ccc1OCCCC(=O)NO	15
CC(NCc1ccc2c(c1)[nH]/c(=N\C(=O)c1ccc(-c3cn[nH]c3)s1)n2CC(C)(C)O)C(C)(C)C (stereo not drawn)	25.9
CCNc1cc(NC2CCC(O)CC2)nc(Nc2ccc3c(ccn3Cc3ccccc3)c2)n1 (stereo not drawn)	120
CC(C)C[C@H](NC(=O)[C@H](Cc1ccccc1)NC(=O)c1cnccn1)B(O)O	0.316
CC(C)(C)NC(=O)[C@@H]1CN(Cc2cccnc2)CCN1C[C@@H](O)C[C@@H](Cc1ccccc1)C(=O)N[C@H]1c2ccccc2C[C@H]1O.O=S(=O)(O)O	104

Alright, here's another compound for you.
Lab note: need cell viability for CC[C@@]1(O)C[C@H](O[C@H]2C[C@H](N(C)C)[C@H](O[C@H]3C[C@H](O)[C@H](O[C@H]4CCC(=O)[C@H](C)O4)[C@H](C)O3)[C@H](C)O2)c2c(cc3c(c2O)C(=O)c2c(O)cccc2C3=O)[C@H]1C(=O)OC on P12-Ichikawa, anyone have it?
85.5

----------
Test system: SEM cells
Assay: cell viability relative to DMSO control; higher = less cytotoxic
Details: RPMI 5 mM glucose + 10% FBS; 48 h; 46.1 µM
Endpoint Name: cell viability (%)
Quick note: give the figure in %, leave out the unit.

Completed entries (count: 6):
Compound	Unit Of Measure	cell viability
Cc1cc(Cl)ccc1OCCCC(=O)NO	%	10.9
O=C1NC(O)CCN1[C@@H]1O[C@H](CO)[C@@H](O)[C@H]1O (stereo not given in full)	%	122
C[C@@H](N)c1ccc(C(=O)Nc2ccnc3[nH]ccc23)cc1	%	52.5
O=C1CCc2ccc(OCCCCN3CCN(c4cccc(Cl)c4Cl)CC3)cc2N1	%	73.1
Nc1nc(OCc2ccccc2)c2nc[nH]c2n1	%	88.9
CCN1C[C@]2(OC(=O)c3ccccc3NC(C)=O)CC[C@H](OC)[C@@]34[C@@H]2C[C@@H]([C@@H]13)[C@@]1(O)C[C@H](OC)[C@H]2C[C@@H]4[C@]1(O)[C@H]2OC	%	71

// query cell viability value for entry COC1=CC2=C(C=C1OC)[C@H]3[C@@H](CO2)OC4=C(C=CC5=C4\C=C/C(C)(C)O5)C3=O
3.59

// query cell viability value for entry CC(C)[C@H](CO)Nc1nc(Nc2cccc(Cl)c2)c2ncn(C(C)C)c2n1
1.1

// query cell viability value for entry COc1cc(-c2nn(C3CCC(N4CCN(C(C)=O)CC4)CC3)c3ncnc(N)c23)ccc1NC(=O)c1cc2ccccc2n1C (stereo not given)
85.5

// query cell viability value for entry CC1(C)CC(O)CC(C)(C)N1[O]
99.5

----------
Test system: SEM cells
Assay: cell viability relative to DMSO control; higher = less cytotoxic
Conditions: HPLM + 10% dialyzed FBS; 48 h; 5.12 µM
Lab note: anything with cell viability below 90% is marked condition met; values at 90% or higher are marked condition not met.

Molecule	Class Assignment
COc1ccc(Nc2cc(-c3cnc(N)nc3)nc(N3CCOCC3)n2)cn1	condition met
CN(C)CC/C=C1/c2ccccc2COc2ccc(CC(=O)O)cc21	condition not met
C[C@@H]1C[C@H]2[C@@H]3CC\C4=C\C(=O)\C=C/[C@]4(C)[C@@]3(Cl)[C@@H](O)C[C@]2(C)[C@@]1(OC(=O)C5=CC=CO5)C(=O)CCl	condition met

cell viability strictly < 90% for this molecule? CC(C)NCC(O)c1ccc(NS(C)(=O)=O)cc1 (stereo not given)
condition not met

cell viability strictly < 90% for this molecule? Cc1ccc(C(=O)c2cc(O)c(O)c([N+](=O)[O-])c2)cc1
condition not met

cell viability strictly < 90% for this molecule? COC1=CC2=C(C=C1OC)[C@H]3[C@@H](CO2)OC4=C(C=CC5=C4\C=C/C(C)(C)O5)C3=O
condition met

cell viability strictly < 90% for this molecule? C[N+](C)([O-])CCNc1ccc(NCC[N+](C)(C)[O-])c2c1C(=O)c1c(O)ccc(O)c1C2=O
condition met

cell viability strictly < 90% for this molecule? O=C(CCc1ccc(O)cc1)c1c(O)cc(O)cc1O[C@@H]1O[C@H](CO)[C@@H](O)[C@H](O)[C@H]1O
condition not met

cell viability strictly < 90% for this molecule? CCNc1cc(NC2CCC(O)CC2)nc(Nc2ccc3c(ccn3Cc3ccccc3)c2)n1 (stereo not given)
condition not met

cell viability strictly < 90% for this molecule? COC1(C[S+]([O-])c2ccccc2)CCN(CCc2c[nH]c3ccc(F)cc23)CC1 (stereo not given)
condition not met

cell viability strictly < 90% for this molecule? O=C1N\2CCC3=C([NH]C4=C3C=CC=C4)C2=N/C5=CC=CC=C15
condition not met

cell viability strictly < 90% for this molecule? C[S+]([O-])c1ccc(-c2nc(-c3ccc(F)cc3)c(-c3ccncc3)[nH]2)cc1 (stereo not given)
condition met

cell viability strictly < 90% for this molecule? CNCC(O)C(O)C(O)C(O)CO.O=C(O)c1ccc(-c2cc3cccnc3c(-c3ccc4nonc4c3)n2)cc1
condition not met

----------
Tested on: NOMO1
Experiment: cell viability relative to DMSO control; higher = less cytotoxic
Conditions: RPMI 5 mM glucose + 10% FBS; 48 h; 0.0211 µM
Endpoint Name: cell viability (%)
Quick note: give the figure in %, leave out the unit.

Smiles Notation	Assayed Target	Unit Of Measure	cell viability
COc1cccc2c1C(=O)c1c(O)c3c(c(O)c1C2=O)C[C@@](O)(C(C)=O)C[C@@H]3O[C@H]1C[C@H](N)[C@H](O)[C@H](C)O1	NOMO1	%	99.2
CN(C)c1ccc2cc(C(=O)N[C@@H](CCCNC(=N)CCl)C(=O)NCc3ccccc3)ccc2c1	NOMO1	%	96.3
CC(=O)[C@H]1CC[C@H]2[C@@H]3CCC4=CC(=O)CC[C@]4(C)[C@H]3CC[C@]12C	NOMO1	%	120

// query cell viability value for entry CCOC1=CC(=CC=C1C/2=N/[C@@](C)(C3=CC=C(Cl)C=C3)[C@](C)(N2C(=O)N4CCN(CC4)CC(=O)N5CCOCC5)C6=CC=C(Cl)C=C6)C(C)(C)C
105

----------
Tested on: P12-Ichikawa
Assay: cell viability relative to DMSO control; higher = less cytotoxic
Conditions: HPLM + 10% dialyzed FBS; 48 h; 0.00234 µM
Endpoint Name: cell viability (%)
Quick note: give the figure in %, leave out the unit.

Completed entries (count: 2):
Molecule	Unit Of Measure	cell viability
CCCCCCCCc1ccc(CCC(N)(CO)CO)cc1	%	111
CC(NCc1ccc2c(c1)[nH]/c(=N\C(=O)c1ccc(-c3cn[nH]c3)s1)n2CC(C)(C)O)C(C)(C)C (stereo unspecified)	%	112

// query cell viability value for entry CC(C)NCC(O)c1ccc(NS(C)(=O)=O)cc1 (stereo unspecified)
113

// query cell viability value for entry CCNC(=O)[C@H]1O[C@@H](n2cnc3c(N)nc(NCCc4ccc(CCC(=O)O)cc4)nc32)[C@H](O)[C@@H]1O
97.9

// query cell viability value for entry CO[C@H]1C[C@@H]2CC[C@@H](C)[C@@](O)(O2)C(=O)C(=O)N2CCCC[C@H]2C(=O)O[C@H]([C@H](C)C[C@@H]2CC[C@@H](OCCO)[C@H](OC)C2)CC(=O)[C@H](C)/C=C(/C)[C@@H](O)[C@@H](OC)C(=O)[C@H](C)C[C@H](C)\C=C/C=C\C=C/1C
109

// query cell viability value for entry C[C@@H]1CC[C@@]2(OC1)OC1CC3C4CC=C5CC(O)CCC5(C)C4CCC3(C)C1[C@@H]2C (stereo partly specified)
105
